# Target Desc: human GPRC5D (human, UniProt Q9NZD1 1-345)
# Sequence (Q9NZD1 whole entry): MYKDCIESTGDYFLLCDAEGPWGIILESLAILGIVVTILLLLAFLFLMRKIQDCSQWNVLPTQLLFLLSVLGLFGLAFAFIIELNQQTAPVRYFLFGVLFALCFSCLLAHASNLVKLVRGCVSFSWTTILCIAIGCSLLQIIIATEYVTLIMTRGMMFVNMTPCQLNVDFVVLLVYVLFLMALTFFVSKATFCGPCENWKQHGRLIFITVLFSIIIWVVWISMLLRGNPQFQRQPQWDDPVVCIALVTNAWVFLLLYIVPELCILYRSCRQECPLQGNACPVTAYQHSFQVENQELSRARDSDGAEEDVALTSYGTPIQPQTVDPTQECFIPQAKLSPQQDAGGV
# Protocol Description: cell-based or functional assay
Readout Type: CAR-J2 EC50 [ng/mL] (PGLALA-CAR-J activation, L363 target cells) (ng/mL)

1. P1AE5759 (antibody, V domains shown, Humanized 5F11 IgG; PGLALA Fc implied by the CAR-J assay; also called 5F11_VH2b + 5F11_VL2c) VH: EVQLVESGGGLVQPGGSLRLSCAASGFSFSNYGMAWVRQAPGKGLEWVASISTGGGNTYYRDSVKGRFTISRDNAKNTLYLQMNSLRAEDTAVYYCTRHDRGGLYWGQGTMVTVSS VL: EIVLTQSPGTLSLSPGERATLSCRASKSLLHSNGITYVYWYQQKPGQAPRLLIYRMSNLASGIPDRFSGSGSGTDFTLTISRLEPEDFAVYHCGQLLENPYTFGQGTKLEIK | 15.7
2. P1AE5760 (antibody, V domains shown, Humanized 5F11 IgG; PGLALA Fc implied by the CAR-J assay; also called 5F11_VH2d + 5F11_VL1a) VH: EVQLVESGGGLVQPGGSLRLSCAASGFSFSNYGMAWVRQAPGKGLEWVASISTGGGNTYYADSVKGRFTISRDNAKNTLYLQMNSLRAEDTAVYYCTRHDRGGLYWGQGTMVTVSS VL: DIVMTQSPLSLPVTPGEPASISCRSSKSLLHSNGITYVYWYLQKPGQSPQVLIYRMSNLASGVPDRFSGSGSGTDFTLKISRVEAEDVGVYHCGQLLENPYTFGQGTKLEIK | 190
3. P1AE5738 (antibody, V domains shown, Humanized 5F11 IgG; PGLALA Fc implied by the CAR-J assay; also called 5F11_VH1a + 5F11_VL2c) VH: QVQLVESGGGVVQPGRSLRLSCAASGFSFSNYGMAWVRQAPGKGLEWVASISTGGGNTYYRDSVKGRFTISRDNSKNTLYLQMNSLRAEDTAVYYCTRHDRGGLYWGQGTMVTVSS VL: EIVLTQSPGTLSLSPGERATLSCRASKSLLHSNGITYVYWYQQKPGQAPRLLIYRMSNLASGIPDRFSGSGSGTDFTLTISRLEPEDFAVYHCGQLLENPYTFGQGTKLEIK | 397

All values here come from patent US20220259318A1.
